Assay: CCTE_Harrill_HTTr_Viability_MCF7: CCTE's 6-hour Cell Viability Assessment for the High-Throughput Transcriptomics (HTTr) Platform, in MCF-7 cells cultured in DMEM + 10% fetal bovine serum, Harrill Lab (AID 2284010)
Calls of active or inactive are those of the source. Rule for the calls: active = hit-call score of the fitted dose curve at least 0.9, where 1 is the maximum; inactive = score below 0.9.
Readout label: outcome

Compound | outcome
OCC(c1ccc(Cl)cc1)c1ccc(Cl)cc1 | inactive
O=NN1CCCCCC1 | inactive
N#CCCC(Br)(C#N)CBr (stereo not given) | inactive
C=CCc1ccccc1O | inactive
CCOP(=S)(OCC)O/N=C(\C#N)c1ccccc1 | inactive
OCCN(CCO)CCO | inactive
CCCSP(=S)(OCC)Oc1ccc(SC)cc1 (stereo not given) | inactive
Cc1cc(Cl)ccc1OCCCC(=O)O | inactive
Clc1cccc(Cl)c1 | inactive
Cc1cc(Cl)ccc1N | inactive

Now take the following compound into account.
The compound listed as "O=C(O)C1(c2ccc3c(c2)OC[C@H](Cc2ccc(-c4ccccc4)cc2)[C@H]3O)CCCC1" shows outcome equal to inactive

====

Assay: APR_HepG2_MitoticArrest_24hr: Apredica 24-hour HepG2 Assay for Mitotic Arrest (AID 2282910)
Settings: high-content imaging, actives raise or lower the signal
Activity calls are given as the source filed them. The calls were made as follows: active = hit-call score of the fitted dose curve at least 0.9, where 1 is the maximum; inactive = score below 0.9.
Readout label: AC50

Check out these entries, answers already filled in.
Smiles str | AC50
O=C(O)C1(c2ccc3c(c2)OC[C@H](Cc2ccc(-c4ccccc4)cc2)[C@H]3O)CCCC1 | inactive
Cc1cc(C)cc(C)c1 | inactive
O=C(N[C@H]1CN2CCC1CC2)c1ccc2c(c1)OCCO2 | inactive
CC(C)O.CC(C)O.OCCN(CCO)CCO.OCCN(CCO)CCO.[Ti] | inactive
Oc1c(Cl)cc(Cl)cc1Cl | inactive

The compound listed as "Clc1cccc(Cl)c1Cl" shows AC50 equal to inactive

The compound listed as "Oc1cc(Cl)c(Cl)cc1Cl" shows AC50 equal to 38.6 µM (active)

====

Assay: TOX21_p53_BLA_p3_viability: Viability Assessment in the Tox21 HCT-116 p53 Agonism Beta-lactamase Assay, Phase 3 (AID 2283593);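 note: cells exposed to compound for 16 h before reading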
Records with an inconclusive call do not appear. Calls of active or inactive are those of the source. Rule for the calls: active = hit-call score of the fitted dose curve at least 0.9, where 1 is the maximum; inconclusive = response in the unintended direction; inactive = score below 0.9.
Readout label: AC50

Check out these entries, answers already filled in.
Compound | AC50
CCNc1nc(NCC)nc(SC)n1 | inactive
C#CCOC(=O)/C=C(C)/C=C/CC(C)CCCC(C)C (configuration not stated) | inactive
CCCCCCCCCCCCN(C)C | inactive
Cc1cc(SCc2sc(-c3ccc(C(F)(F)F)c(F)c3)nc2C)ccc1OCC(=O)O | 35.3 µM (active)
O=S1(=O)OC(c2cc(Br)c(O)c(Br)c2)(c2cc(Br)c(O)c(Br)c2)c2ccccc21 | 8.86 µM (active)

The compound listed as "Clc1cnc(Oc2ccc(Oc3ncc(Cl)cc3Cl)cc2)c(Cl)c1" shows AC50 equal to inactive

The compound listed as CCCCCCCCCCCCCCC(Br)C(=O)O (configuration not stated) shows AC50 equal to 41.4 µM (active)

The compound listed as "Cl[C@H]1OCCO[C@@H]1Cl" shows AC50 equal to inactive

The compound listed as "CCN(CC)C(=O)C(Cl)=C(C)OP(=O)(OC)OC" shows AC50 equal to inactive

The compound listed as "O=CCCl" shows AC50 equal to inactive

The compound listed as "Clc1cc(C(Cl)(Cl)Cl)cnc1Cl" shows AC50 equal to inactive

The compound listed as "CC1(C)[C@H](C(=O)O[C@H](C#N)c2cccc(Oc3ccccc3)c2)[C@@H]1/C=C(\Cl)C(F)(F)F" shows AC50 equal to inactive

====

Assay: CCTE_Shafer_MEA_acute_interburst_interval_mean: CCTE's Neural Acute Assay for Mean Interburst Interval, Shafer Lab (AID 2284016);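 note: percent change of mean interburst interval versus each well's own pre-dose baseline; curves fitted for decrease in interburst interval relative to DMSO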
Calls of active or inactive are those of the source. Rule for the calls: active = hit-call score of the fitted dose curve at least 0.9, where 1 is the maximum; inactive = score below 0.9.
Pick one: yes for active, no for inactive

These recorded examples may help you get a feel for the data.
Smiles str | Classification
CCCCCCCCCCCCc1cccc(S(=O)(=O)O)c1 | no
Cc1ccccc1OP(=O)(Oc1ccccc1C)Oc1ccccc1C | yes
CN(C)C(=S)S | no
Oc1ccc(Cc2ccc(O)cc2)cc1 | no
Clc1cccc(Cl)c1Cl | no
Cc1cc(C(F)(C(F)(F)F)C(F)(F)F)ccc1NC(=O)c1cccc(I)c1C(=O)NC(C)(C)CS(C)(=O)=O | no

Okay, now this molecule:
Recorded test call requested for "CC1(C)[C@H](C(=O)O[C@H](C#N)c2cccc(Oc3ccccc3)c2)[C@@H]1/C=C(\Cl)C(F)(F)F"
yes

====

The following compounds are shown together with reported AC50 values.
Test system: SERPINA7 (gene 6906)
Assay: CCTE_GLTED_hTBG: CCTE's human Thyroxine-binding Globulin (TBG) Inhibition Assay, Great Lakes Toxicology and Ecology Division (GLTED) Lab (AID 2284343);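 note: active chemicals lower fluorescence versus DMSO baseline by displacing probe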
Activity calls are given as the source filed them. How the source made its calls: active means hit-call score of the fitted dose curve at least 0.9, where 1 is the maximum; inconclusive means response in the unintended direction; inactive means score below 0.9.

Check out these entries, answers already filled in.
Compound | Value
CCCSP(=S)(OCC)Oc1ccc(SC)cc1 (stereo not given) | 1.52 µM (active)
CCOCn1c(-c2ccc(Cl)cc2)c(C#N)c(Br)c1C(F)(F)F | 2.12 µM (active)
O=C(O)COc1cc(Cl)c(Cl)cc1Cl | 45.6 µM (active)
Oc1cc(Cl)c(Cl)cc1Cl | 40.8 µM (active)

The compound listed as "O=S1(=O)OC(c2cc(Br)c(O)c(Br)c2)(c2cc(Br)c(O)c(Br)c2)c2ccccc21" shows AC50 equal to 7.4 µM (active)

====

Biological target: Cellular tumor antigen p53 (Homo sapiens) (UniProt P04637)
Sequence (P04637 whole entry, looked up): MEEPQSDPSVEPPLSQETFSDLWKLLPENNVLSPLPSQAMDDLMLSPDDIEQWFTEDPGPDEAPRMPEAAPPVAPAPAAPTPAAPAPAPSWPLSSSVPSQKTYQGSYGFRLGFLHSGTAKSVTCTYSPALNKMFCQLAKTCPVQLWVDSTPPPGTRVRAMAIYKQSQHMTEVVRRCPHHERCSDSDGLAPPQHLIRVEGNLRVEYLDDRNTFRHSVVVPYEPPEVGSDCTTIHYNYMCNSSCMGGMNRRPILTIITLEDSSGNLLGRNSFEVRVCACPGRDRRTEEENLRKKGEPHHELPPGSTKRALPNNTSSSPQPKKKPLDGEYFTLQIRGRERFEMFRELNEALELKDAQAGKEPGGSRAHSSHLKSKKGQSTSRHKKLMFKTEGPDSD
Experiment: TOX21_p53_BLA_p2_ratio: Tox21 HCT-116 p53 Agonism Beta-lactamase Assay, Ratio, Phase 2 (AID 2283592)
Inconclusive results are not listed. Active and inactive are the calls of the source. Rule for the calls: active = hit-call score of the fitted dose curve at least 0.9, where 1 is the maximum; inconclusive = response in the unintended direction; inactive = score below 0.9.
Pick one: active, inactive

These recorded examples may help you get a feel for the data.
Compound | Assay system | Classification
C#CCO | Cellular tumor antigen p53 (Homo sapiens) (UniProt P04637) | inactive
O=C1C[C@@H]2OCC=C3CN4CC[C@]56c7ccccc7N1[C@H]5[C@H]2[C@H]3C[C@H]46 | Cellular tumor antigen p53 (Homo sapiens) (UniProt P04637) | inactive
CS(=O)(=O)c1ccc(C(=O)C2C(=O)CCCC2=O)c(Cl)c1COCC(F)(F)F | Cellular tumor antigen p53 (Homo sapiens) (UniProt P04637) | inactive
C=CC(=O)OCC(COC(=O)C=C)(COC(=O)C=C)COC(=O)C=C | Cellular tumor antigen p53 (Homo sapiens) (UniProt P04637) | inactive
CC(=O)CN(CC(C)=O)N=O | Cellular tumor antigen p53 (Homo sapiens) (UniProt P04637) | inactive

Recorded test call requested for "ClCCCCl"
inactive

Recorded test call requested for "Cc1cccc(N=Nc2ccc(N(C)C)cc2)c1"
inactive

====

Molecular target: human Peroxisome Proliferator-activated Receptor alpha (PPARa), PPARA (gene 5465) (UniProt Q07869)
Sequence (Q07869 whole entry, looked up): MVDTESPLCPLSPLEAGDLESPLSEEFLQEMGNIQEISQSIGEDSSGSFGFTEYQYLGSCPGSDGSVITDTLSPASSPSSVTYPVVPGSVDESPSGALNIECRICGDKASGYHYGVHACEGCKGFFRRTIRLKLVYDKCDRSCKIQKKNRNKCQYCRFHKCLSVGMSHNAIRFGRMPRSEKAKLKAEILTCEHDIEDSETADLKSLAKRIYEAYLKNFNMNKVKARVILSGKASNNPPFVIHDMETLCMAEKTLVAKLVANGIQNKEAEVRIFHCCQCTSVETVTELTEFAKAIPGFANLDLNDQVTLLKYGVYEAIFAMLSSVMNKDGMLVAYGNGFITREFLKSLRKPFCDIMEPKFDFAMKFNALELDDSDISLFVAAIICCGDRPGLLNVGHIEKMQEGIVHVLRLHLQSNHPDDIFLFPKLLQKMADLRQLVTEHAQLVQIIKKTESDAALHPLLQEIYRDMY
Test: NVS_NR_hPPARa: NovaScreen (NVS) Nuclear Receptor Binding Assay for human Peroxisome Proliferator-activated Receptor alpha (PPARa) (AID 2283359);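 note: activity means loss of TR-FRET signal versus DMSO baseline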
Inconclusive results are not listed. Active and inactive are the calls of the source. How the source made its calls: active means hit-call score of the fitted dose curve at least 0.9, where 1 is the maximum; inconclusive means response in the unintended direction; inactive means score below 0.9.
Pick one: YES for active, NO for inactive

Recorded test call requested for N#CCCC(Br)(C#N)CBr (stereo not drawn)
NO

Recorded test call requested for O=C1c2ccccc2C(=O)C1C(=O)C(c1ccccc1)c1ccc(Cl)cc1 (stereo not drawn)
NO

====

Read-out: Cyclin Dependent Kinase Inhibitor 1A (CDKN1A), CDKN1A (gene 1026)
Assay: LTEA_HepaRG_CDKN1A: Life Technologies and Expression Analysis (LTEA) Assay for Cyclin Dependent Kinase Inhibitor 1A (CDKN1A) using HepaRG (AID 2283450)
Conditions: mRNA level, 48 h; actives raise or lower the signal
The source made the active and inactive calls. Rule for the calls: active = hit-call score of the fitted dose curve at least 0.9, where 1 is the maximum; inactive = score below 0.9.
Pick one: active, inactive

These recorded examples may help you get a feel for the data.
Smiles str | Classification
O=C(N[C@H]1CN2CCC1CC2)c1ccc2c(c1)OCCO2 | inactive
OCCN(CCO)CCO | inactive
Clc1cccc(Cl)c1Cl | inactive
CCCCCCCCCCCCc1cccc(S(=O)(=O)O)c1 | inactive
Oc1c(Cl)cc(Cl)cc1Cl | inactive

Recorded test call requested for "CN(C)C(=S)S"
inactive

Recorded test call requested for "Cc1cc(C)cc(C)c1"
inactive

Recorded test call requested for "O=C(O)C1(c2ccc3c(c2)OC[C@H](Cc2ccc(-c4ccccc4)cc2)[C@H]3O)CCCC1"
active

Recorded test call requested for "Oc1cc(Cl)c(Cl)cc1Cl"
inactive

Recorded test call requested for "N#Cc1cccnc1"
inactive

Recorded test call requested for "Clc1cccc(Cl)c1"
inactive

====

Target: human Ephrin type-A Receptor 1 (EphA1), EPHA1 (gene 2041) (UniProt P21709)
Sequence (P21709 whole entry, looked up): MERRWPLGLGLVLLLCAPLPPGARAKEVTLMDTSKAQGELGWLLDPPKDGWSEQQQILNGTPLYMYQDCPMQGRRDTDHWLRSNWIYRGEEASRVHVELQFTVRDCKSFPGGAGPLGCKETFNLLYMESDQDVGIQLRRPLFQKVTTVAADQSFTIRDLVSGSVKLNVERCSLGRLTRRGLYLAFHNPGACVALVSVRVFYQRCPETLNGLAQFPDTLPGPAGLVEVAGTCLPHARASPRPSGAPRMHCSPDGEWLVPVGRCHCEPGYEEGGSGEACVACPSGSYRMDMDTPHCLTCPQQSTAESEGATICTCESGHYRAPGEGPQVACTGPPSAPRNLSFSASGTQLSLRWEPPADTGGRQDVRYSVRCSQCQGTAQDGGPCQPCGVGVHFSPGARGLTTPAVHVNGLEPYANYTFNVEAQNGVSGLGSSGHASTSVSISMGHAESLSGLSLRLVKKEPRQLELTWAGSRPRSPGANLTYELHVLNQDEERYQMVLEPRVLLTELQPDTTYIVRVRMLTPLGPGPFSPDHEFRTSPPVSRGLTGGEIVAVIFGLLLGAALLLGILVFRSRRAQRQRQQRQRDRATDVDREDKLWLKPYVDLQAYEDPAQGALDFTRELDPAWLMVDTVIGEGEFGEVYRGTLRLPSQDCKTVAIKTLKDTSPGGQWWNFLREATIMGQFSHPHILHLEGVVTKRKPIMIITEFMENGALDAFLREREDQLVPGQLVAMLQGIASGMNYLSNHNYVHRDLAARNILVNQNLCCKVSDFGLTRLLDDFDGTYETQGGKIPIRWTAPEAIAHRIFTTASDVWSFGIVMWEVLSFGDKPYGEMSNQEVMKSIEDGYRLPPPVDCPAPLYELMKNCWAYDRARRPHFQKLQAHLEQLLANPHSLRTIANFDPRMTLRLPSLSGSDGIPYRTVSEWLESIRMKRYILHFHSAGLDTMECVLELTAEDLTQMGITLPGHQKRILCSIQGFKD
Experiment: NVS_ENZ_hEphA1: NovaScreen (NVS) Enzymatic Assay for human Ephrin type-A Receptor 1 (EphA1) (AID 2283158);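 note: activity is signal loss versus DMSO meaning EphA1 kinase inhibition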
Inconclusive results are not listed. The source made the active and inactive calls. The calls were made as follows: active = hit-call score of the fitted dose curve at least 0.9, where 1 is the maximum; inconclusive = response in the unintended direction; inactive = score below 0.9.
Pick one: active, inactive

These recorded examples may help you get a feel for the data.
Compound | Classification
O=S(=O)(c1ccc(Cl)cc1)c1cc(Cl)c(Cl)cc1Cl | inactive
C=C(C)C(=O)OCC(CC)CCCC (stereo not drawn) | inactive
Nc1ccc(N)cc1 | inactive
CC(C)[N+](=O)[O-] | inactive

Recorded test call requested for "CCOP(=O)(OCC)OC(=CCl)c1ccc(Cl)cc1Cl"
inactive

Recorded test call requested for "COc1ccccc1N"
inactive

Recorded test call requested for "CCCCCCCCCCCCc1cccc(S(=O)(=O)O)c1"
active

Recorded test call requested for O=c1oc2ccccc2c(O)c1C(CC(O)c1ccc(-c2ccc(Br)cc2)cc1)c1ccccc1 (stereo not drawn)
inactive

Recorded test call requested for "c1ccc2sc(SNC3CCCCC3)nc2c1"
active

Recorded test call requested for "c1ccc(-c2cccc(-c3ccccc3)c2)cc1"
active

Recorded test call requested for CC1CC(=O)O1 (stereo not drawn)
inactive

Recorded test call requested for "O=[N+]([O-])c1ccc(Nc2ccccc2)cc1"
inactive

Recorded test call requested for "O=C(Cl)OCCOCCOC(=O)Cl"
active
